- procedure-details: In vitro bioconversion study, blood (mini-pig)
- Format: in vitro ADME
- applied-conditions: minipig, prodrug 2.5 ug/mL, 37° C.
parameter: half-life at 2.5 ug/mL

Some entries whose results are on file:
compound	half-life at 2.5 ug/mL
C[C@@](Cc1ccc(OP(=O)(O)O)c(O)c1)(NN)C(=O)O [Carbidopa 4′-phosphate, Carbidopa 4′-monophosphate]	8.8 min
N[C@@H](Cc1ccc(OP(=O)(O)O)c(OP(=O)(O)O)c1)C(=O)O [L-dopa 3′,4′-diphosphate]	125 min

Consider now this further compound.
For this compound ( C[C@@](Cc1ccc(O)c(OP(=O)(O)O)c1)(NN)C(=O)O [Carbidopa 3′-phosphate, Carbidopa 3′-monophosphate] ), measured half-life at 2.5 ug/mL is 8.9 min

* * *

- procedure-details: In vitro bioconversion study, skin homogenates (rat)
- Assay type: in vitro ADME
- applied-conditions: rat skin homogenate

compound	L-Dopa or Carbidopa Formation
C[C@@](Cc1ccc(OP(=O)(O)O)c(OP(=O)(O)O)c1)(NN)C(=O)O [Carbidopa 3′,4′-diphosphate]	No
C[C@@](Cc1ccc(O)c(OP(=O)(O)O)c1)(NN)C(=O)O [Carbidopa 3′-phosphate, Carbidopa 3′-monophosphate]	Yes
N[C@@H](Cc1ccc(OP(=O)(O)O)c(OP(=O)(O)O)c1)C(=O)O [L-dopa 3′,4′-diphosphate]	No
C[C@@](Cc1ccc(OP(=O)(O)O)c(O)c1)(NN)C(=O)O [Carbidopa 4′-phosphate, Carbidopa 4′-monophosphate]	Yes

* * *

- procedure-details: Carbidopa diphosphate pharmacokinetics study in mini-pigs
- Assay type: in vivo
- applied-conditions: minipig, in vivo, sc, 2 mg/kg
parameter: AUC (ng·h/mL)
Supply the numeric figure in ng·h/mL, leaving out any unit text.

For this compound ( C[C@@](Cc1ccc(O)c(O)c1)(NN)C(=O)O ), measured AUC is 1610

* * *

- procedure-details: Solubility study in water by visual assessment
- Type: physicochemical
- applied-conditions: thermodynamic from solid; water, ambient, pH 7.1; amorphous
parameter: solubility

For this compound ( C[C@@](Cc1ccc(O)c(OP(=O)(O)O)c1)(NN)C(=O)O [Carbidopa 3′-phosphate, Carbidopa 3′-monophosphate] ), measured solubility is > 96 mg/mL

* * *

- procedure-details: In vitro bioconversion study, skin homogenates (mini-pig)
- Type: in vitro ADME
- applied-conditions: mini-pig skin homogenate
parameter: L-Dopa or Carbidopa Formation

compound	parameter	observed-measurement
C[C@@](Cc1ccc(OP(=O)(O)O)c(O)c1)(NN)C(=O)O [Carbidopa 4′-phosphate, Carbidopa 4′-monophosphate]	L-Dopa or Carbidopa Formation	Yes
C[C@@](Cc1ccc(O)c(OP(=O)(O)O)c1)(NN)C(=O)O [Carbidopa 3′-phosphate, Carbidopa 3′-monophosphate]	L-Dopa or Carbidopa Formation	Yes
C[C@@](Cc1ccc(OP(=O)(O)O)c(OP(=O)(O)O)c1)(NN)C(=O)O [Carbidopa 3′,4′-diphosphate]	L-Dopa or Carbidopa Formation	No
N[C@@H](Cc1ccc(OP(=O)(O)O)c(OP(=O)(O)O)c1)C(=O)O [L-dopa 3′,4′-diphosphate]	L-Dopa or Carbidopa Formation	No

* * *

- procedure-details: In vitro bioconversion study, blood (human)
- Type: in vitro ADME
- applied-conditions: prodrug 2.5 ug/mL, 37° C.
parameter: half-life at 2.5 ug/mL (h)
Supply the numeric figure in h, leaving out any unit text.

Some entries whose results are on file:
compound	observed-measurement
C[C@@](Cc1ccc(OP(=O)(O)O)c(O)c1)(NN)C(=O)O [Carbidopa 4′-phosphate, Carbidopa 4′-monophosphate]	1.08
C[C@@](Cc1ccc(O)c(OP(=O)(O)O)c1)(NN)C(=O)O [Carbidopa 3′-phosphate, Carbidopa 3′-monophosphate]	0.967

Consider now this further compound.
For this compound ( N[C@@H](Cc1ccc(OP(=O)(O)O)c(OP(=O)(O)O)c1)C(=O)O [L-dopa 3′,4′-diphosphate] ), measured half-life at 2.5 ug/mL is 2.3

* * *

- procedure-details: In vitro bioconversion study, blood (human)
- Type: in vitro ADME

compound	L-Dopa or Carbidopa Formation
C[C@@](Cc1ccc(OP(=O)(O)O)c(OP(=O)(O)O)c1)(NN)C(=O)O [Carbidopa 3′,4′-diphosphate]	No
N[C@@H](Cc1ccc(OP(=O)(O)O)c(OP(=O)(O)O)c1)C(=O)O [L-dopa 3′,4′-diphosphate]	Yes
C[C@@](Cc1ccc(O)c(OP(=O)(O)O)c1)(NN)C(=O)O [Carbidopa 3′-phosphate, Carbidopa 3′-monophosphate]	Yes
C[C@@](Cc1ccc(OP(=O)(O)O)c(O)c1)(NN)C(=O)O [Carbidopa 4′-phosphate, Carbidopa 4′-monophosphate]	Yes

* * *

- procedure-details: In vitro bioconversion study, skin homogenates (mini-pig)
- Format: in vitro ADME
- applied-conditions: minipig; mini-pig skin homogenate 3 mg/mL, 37° C.
Listed compounds paired with reported half-life at 2.5 ug/mL
Supply the numeric figure in h, leaving out any unit text.

compound	parameter	unit-symbol	observed-measurement
C[C@@](Cc1ccc(O)c(OP(=O)(O)O)c1)(NN)C(=O)O [Carbidopa 3′-phosphate, Carbidopa 3′-monophosphate]	half-life at 2.5 ug/mL	h	6.88

For this compound ( C[C@@](Cc1ccc(OP(=O)(O)O)c(O)c1)(NN)C(=O)O [Carbidopa 4′-phosphate, Carbidopa 4′-monophosphate] ), measured half-life at 2.5 ug/mL is 1.9

* * *

- procedure-details: In vitro bioconversion study, blood (mini-pig)
- Assay type: in vitro ADME

molecule	L-Dopa or Carbidopa Formation
N[C@@H](Cc1ccc(OP(=O)(O)O)c(OP(=O)(O)O)c1)C(=O)O [L-dopa 3′,4′-diphosphate]	Yes
C[C@@](Cc1ccc(O)c(OP(=O)(O)O)c1)(NN)C(=O)O [Carbidopa 3′-phosphate, Carbidopa 3′-monophosphate]	Yes
C[C@@](Cc1ccc(OP(=O)(O)O)c(OP(=O)(O)O)c1)(NN)C(=O)O [Carbidopa 3′,4′-diphosphate]	No
C[C@@](Cc1ccc(OP(=O)(O)O)c(O)c1)(NN)C(=O)O [Carbidopa 4′-phosphate, Carbidopa 4′-monophosphate]	Yes

* * *

- procedure-details: Pharmacokinetic study in rats, individual prodrug IV or SC
- Type: in vivo, Sprague-Dawley rats
- applied-conditions: male, Sprague-Dawley, plasma; rat, SC, dose 1.25 mg/kg; L-dopa and carbidopa in aqueous solution; read-out: Carbidopa AUCO-8 h
parameter: AUC

For this compound ( C[C@@](Cc1ccc(O)c(O)c1)(NN)C(=O)O [Carbidopa] ), measured AUC is 685 ng·h/mL

* * *

- procedure-details: In vitro bioconversion study, skin homogenates (rat)
- Format: in vitro ADME
- applied-conditions: rat skin homogenate 3 mg/mL, 37° C.
parameter: half-life at 2.5 ug/mL (h)
Supply the numeric figure in h, leaving out any unit text.

molecule	half-life at 2.5 ug/mL [h]
C[C@@](Cc1ccc(O)c(OP(=O)(O)O)c1)(NN)C(=O)O [Carbidopa 3′-phosphate, Carbidopa 3′-monophosphate]	12.1

For this molecule ( C[C@@](Cc1ccc(OP(=O)(O)O)c(O)c1)(NN)C(=O)O [Carbidopa 4′-phosphate, Carbidopa 4′-monophosphate] ), measured half-life at 2.5 ug/mL is 4.52

* * *

Listed compounds paired with reported half-life at 2.5 ug/mL
- procedure-details: In vitro bioconversion study, blood (rat)
- Assay type: in vitro ADME
- applied-conditions: prodrug 2.5 ug/mL, 37° C.
Supply the numeric figure in min, leaving out any unit text.

Some entries whose results are on file:
compound	half-life at 2.5 ug/mL, min
C[C@@](Cc1ccc(O)c(OP(=O)(O)O)c1)(NN)C(=O)O [Carbidopa 3′-phosphate, Carbidopa 3′-monophosphate]	20.5
C[C@@](Cc1ccc(OP(=O)(O)O)c(O)c1)(NN)C(=O)O [Carbidopa 4′-phosphate, Carbidopa 4′-monophosphate]	14.9
N[C@@H](Cc1ccc(OP(=O)(O)O)c(OP(=O)(O)O)c1)C(=O)O [L-dopa 3′,4′-diphosphate]	6

For this compound ( C[C@@](Cc1ccc(OP(=O)(O)O)c(OP(=O)(O)O)c1)(NN)C(=O)O [Carbidopa 3′,4′-diphosphate] ), measured half-life at 2.5 ug/mL is 53

Cited source: patent US10730895B2
